System: E. coli (NCTC strain 10418)
Experiment: Fluorescent signal generated by E. coli reducing nitrocoumarins (nitroaryl reductase activity)
Type: cell-based, Escherichia coli
Conditions: 0.105 mmol/l; 30 min
Property Measured: Fluorescent signal
Give bare numbers.

Worked examples follow.
Ask | I am curious: what Fluorescent signal value has been reported for O=C(O)c1cc2ccc([N+](=O)[O-])cc2oc1=O [7-nitrocoumarin-3-carboxylic acid] ?
Reply | −67

Ask | I am curious: what Fluorescent signal value has been reported for CC(=O)c1c(C)c2ccc([N+](=O)[O-])cc2oc1=O [3-acetyl-4-methyl-7-nitrocoumarin] ?
Reply | 40

For each entry beneath this line, provide reported Fluorescent signal.
1. Cc1cc(=O)oc2cc([N+](=O)[O-])ccc12 [4-methyl-7-nitrocoumarin]
2. O=c1ccc2ccc([N+](=O)[O-])cc2o1 [7-nitrocoumarin]
3. COC(=O)c1cc2ccc([N+](=O)[O-])cc2oc1=O [methyl-7-nitrocoumarin-3-carboxylate]
4. O=C(c1cc2ccc([N+](=O)[O-])cc2oc1=O)N1CCOCC1 [7-nitrocoumarin-3-carboxymorpholide]
5. CCCC(=O)c1cc2ccc([N+](=O)[O-])cc2oc1=O [3-butyryl-7-nitrocoumarin]
6. CCOC(=O)c1cc2ccc([N+](=O)[O-])cc2oc1=O [ethyl-7-nitrocoumarin-3-carboxylate]

Reply |
1: 15; 2: 77; 3: 174; 4: 180; 5: 64; 6: 173

---

System: Escherichia coli (NCTC 10418)
Assay: Growth of E. coli in Mueller-Hinton broth in the presence of nitrocoumarins (optical density 690 nm)
Assay type: cell-based
Settings: 0.105 mmol/l; 30 min
Property Measured: Optical density (690 nm)

Ask | Record lookup: for Escherichia coli (NCTC 10418), what Optical density (690 nm) belongs to CCCC(=O)c1cc2ccc([N+](=O)[O-])cc2oc1=O ?
Reply | 0.001

Ask | Record lookup: for Escherichia coli (NCTC 10418), what Optical density (690 nm) belongs to Cc1cc(=O)oc2cc([N+](=O)[O-])ccc12 ?
Reply | 0.000

Ask | Record lookup: for Escherichia coli (NCTC 10418), what Optical density (690 nm) belongs to O=C(O)c1cc2ccc([N+](=O)[O-])cc2oc1=O ?
Reply | 0.000

Ask | Record lookup: for Escherichia coli (NCTC 10418), what Optical density (690 nm) belongs to CC(=O)c1c(C)c2ccc([N+](=O)[O-])cc2oc1=O ?
Reply | −0.003

For each entry beneath this line, provide reported Optical density (690 nm).
1. O=c1ccc2ccc([N+](=O)[O-])cc2o1
2. CCOC(=O)c1cc2ccc([N+](=O)[O-])cc2oc1=O [ethyl-7-nitrocoumarin-3-carboxylate]
3. COC(=O)c1cc2ccc([N+](=O)[O-])cc2oc1=O [methyl-7-nitrocoumarin-3-carboxylate]
4. O=C(c1cc2ccc([N+](=O)[O-])cc2oc1=O)N1CCOCC1 [7-nitrocoumarin-3-carboxymorpholide]

Reply |
−0.002
−0.005
−0.001
−0.002

---

System: E. coli (NCTC strain 10418)
Experiment: Fluorescent signal generated by E. coli reducing nitrocoumarins (nitroaryl reductase activity)
Format: cell-based, Escherichia coli
Details: 0.105 mmol/l; 90 min
// assign condition met if Fluorescent signal falls strictly below 1000, else condition not met (ties count as condition not met)

Check out these entries, answers already filled in.
Ask | Is it true that Fluorescent signal reported for O=c1ccc2ccc([N+](=O)[O-])cc2o1 is less than 1000?
Reply | condition not met

Ask | Is it true that Fluorescent signal reported for O=C(O)c1cc2ccc([N+](=O)[O-])cc2oc1=O is less than 1000?
Reply | condition met

Ask | Is it true that Fluorescent signal reported for COC(=O)c1cc2ccc([N+](=O)[O-])cc2oc1=O [methyl-7-nitrocoumarin-3-carboxylate] is less than 1000?
Reply | condition not met

Ask | Is it true that Fluorescent signal reported for CCCC(=O)c1cc2ccc([N+](=O)[O-])cc2oc1=O is less than 1000?
Reply | condition met

Ask | Is it true that Fluorescent signal reported for O=C(c1cc2ccc([N+](=O)[O-])cc2oc1=O)N1CCOCC1 [7-nitrocoumarin-3-carboxymorpholide] is less than 1000?
Reply | condition not met

Shifting focus to the molecule that follows.
Ask | Is it true that Fluorescent signal reported for CCOC(=O)c1cc2ccc([N+](=O)[O-])cc2oc1=O [ethyl-7-nitrocoumarin-3-carboxylate] is less than 1000?
Reply | condition not met
